Where do these numbers come from? They come from patent US20240117062A1.

- Target Desc: T1, Human BCMA DTA-His (human;, UniProt Q02223 1-54; P00588 33-225)
- T1 chain: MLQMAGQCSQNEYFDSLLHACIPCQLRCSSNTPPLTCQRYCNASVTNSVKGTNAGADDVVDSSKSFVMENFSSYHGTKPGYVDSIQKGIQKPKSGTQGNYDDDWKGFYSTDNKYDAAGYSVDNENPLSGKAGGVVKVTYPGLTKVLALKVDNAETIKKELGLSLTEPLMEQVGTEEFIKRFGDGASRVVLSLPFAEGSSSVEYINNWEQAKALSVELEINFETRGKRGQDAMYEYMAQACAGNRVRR
- Measurement Description: SPR
For each record, write down the corresponding pKd.
One number for each entry, as −log10 of the molar value.

INSERT INTO measurements (binder, value_observed) VALUES
  ('CA10 Variant 4 (antibody, V domains shown) VH: QVQLVESGGGVVQPGRSLRLSCAASGFTFSNFGMHWVRQAPGRGLEWVAVIWSDETNRYYADSVKGRFTVSRDNVKSTVYLQMNSLISEDTAVYYCARDQQYCSSDSCFTWFDPWGQGTLVTVSS VL: QTVVTQEPSLTVSPGGTVTLTCASSTGAVTPGYYANWVQQKPGQAPRGLIGDNNNKPPWTPARFSGSLLGGKAALTLSGVQPEDEAEYYCALYYGGQWVFGGGTKLTVL', 8.51);

stdin: Read the entry CA10 Variant 2 (antibody, V domains shown) VH: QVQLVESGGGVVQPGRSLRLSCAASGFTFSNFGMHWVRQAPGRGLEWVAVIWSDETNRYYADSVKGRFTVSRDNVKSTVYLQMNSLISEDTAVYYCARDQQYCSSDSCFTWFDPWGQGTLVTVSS VL: QTVVTQEPSLTVSPGGTVTLTCASSTGTVTPSNYANWVQQKPGQAPRGLIGDNNSRPPGTPARFSASLLGGKAALTLSGVQPEDEAEYYCALWFGNQWVFGGGTKLTVL and write its reported pKd.
stdout: 9.32
